system: E. coli ATCC BAA2469 (NDM-1 carbapenem-resistant); test: MIC broth microdilution, E. coli ATCC BAA2469; type: cell-based, Escherichia coli; conditions: Escherichia coli, ATCCBAA2469, MDR; overnight incubation
RESULT TYPE: MIC (µg/mL)
Just the number please, in µg/mL, no unit attached.

Request: MIC for "CO/N=C(\C(=O)N[C@@H]1C(=O)N2C(C(=O)O)=C(COC(C)=O)CS[C@H]12)c1csc(N)n1" ?
Result: 250

Request: How about "FC(F)(F)Oc1ccc(N/N=C2\C=C[C@@]3(CC2)CC[C@@H]2NCCc4c2n3c2ccccc42)cc1" ?
Result: 25

Request: How about "COc1ccc2c(c1)c1c3n2[C@@]2(C=C/C(=N\Nc4ccc(C(F)(F)F)cc4)CC2)CC[C@@H]3NCC1" ?
Result: 25

Request: How about "CO/N=C(\C(=O)N[C@@H]1C(=O)N2C(C(=O)O)=C(CSc3nc(=O)c(=O)[nH]n3C)CS[C@H]12)c1csc(N)n1" ?
Result: 500

Request: How about O=C(O)c1cn(C2CC2)c2cc(N3CCNCC3)c(F)cc2c1=O [Ciprofloxacin, reference compound] ?
Result: 100

Request: How about "C[C@@H](O)[C@H]1C(=O)N2C(C(=O)O)=C(S[C@@H]3CN[C@H](C(=O)N(C)C)C3)[C@H](C)[C@H]12" ?
Result: 25

====

test system: SKOV3; assay: MTT cell viability, SKOV3; format: cell-based; settings: Homo sapiens, SK-OV-3; 48 h of drug treatment; average of three experiments
RESULT TYPE: IC50
Write the figure, then the unit, nothing else.

Request: IC50 for "COc1ccc2c(c1)c1c3n2[C@@]2(C=C/C(=N\Nc4ccc(C(F)(F)F)cc4)CC2)CC[C@@H]3NCC1" ?
Result: 4.68 µM

Request: How about "O=[N+]([O-])c1ccc(N/N=C2\C=C[C@@]3(CC2)CC[C@@H]2NCCc4c2n3c2ccccc42)cc1" ?
Result: 6.52 µM

Request: How about FC(F)(F)c1ccc(N/N=C2\C=C[C@@]3(CC2)CC[C@@H]2NCCc4c2n3c2ccccc42)cc1 (racemic) ?
Result: 3.84 µM

====

test system: A549; experiment: MTT cell viability, A549; format: cell-based; conditions: Homo sapiens, lung cancer, 48 h of drug treatment, average of three experiments
RESULT TYPE: pIC50
The quantity pIC50 is defined as the negative base-10 logarithm of the molar concentration.

Request: What is its pIC50 for A549? Entry: "O=[N+]([O-])c1ccc(N/N=C2\C=C[C@@]3(CC2)CC[C@@H]2NCCc4c2n3c2ccccc42)cc1"
Result: 5.28

Request: How about "Brc1ccc(N/N=C2\C=C[C@@]3(CC2)CC[C@@H]2NCCc4c2n3c2ccccc42)cc1" ?
Result: 5.41

Request: How about FC(F)(F)c1ccc(N/N=C2\C=C[C@@]3(CC2)CC[C@@H]2NCCc4c2n3c2ccccc42)cc1 (racemic) ?
Result: 5.40

Request: How about "Fc1ccc(N/N=C2\C=C[C@@]3(CC2)CC[C@@H]2NCCc4c2n3c2ccccc42)cc1" ?
Result: 4.99

Request: How about "Cc1ccc2c(c1)c1c3n2[C@@]2(C=C/C(=N\Nc4ccc(C(F)(F)F)cc4)CC2)CC[C@@H]3NCC1" ?
Result: 5.31

Request: How about "Fc1ccc2c3c4n(c2c1)[C@@]1(C=C/C(=N\Nc2ccc(C(F)(F)F)cc2)CC1)CC[C@@H]4NCC3" ?
Result: 5.13

Request: How about "Oc1ccc2c(c1)c1c3n2[C@@]2(C=C/C(=N\Nc4ccc(C(F)(F)F)cc4)CC2)CC[C@@H]3NCC1" ?
Result: 5.07

Request: How about "COc1ccc2c3c4n(c2c1)[C@@]1(C=C/C(=N\Nc2ccc(C(F)(F)F)cc2)CC1)CC[C@@H]4NCC3" ?
Result: 5.25

Request: How about "COc1ccc2c(c1)c1c3n2[C@@]2(C=C/C(=N\Nc4ccc(C(F)(F)F)cc4)CC2)CC[C@@H]3NCC1" ?
Result: 5.26

Request: How about "FC(F)(F)Oc1ccc(N/N=C2\C=C[C@@]3(CC2)CC[C@@H]2NCCc4c2n3c2ccccc42)cc1" ?
Result: 5.22

====

system: HCT-116; test: MTT cell viability, HCT-116; type: cell-based; conditions: Homo sapiens, colon cancer, 48 h of drug treatment, average of three experiments
I'd be grateful if you could share measured IC50 for these entries.
Just the number please, in µM, no unit attached.

Request: IC50 for O=[N+]([O-])c1ccc(N/N=C2\C=C[C@@]3(CC2)CC[C@@H]2NCCc4c2n3c2ccccc42)cc1 [Compound 1d] ?
Result: 2.49

Request: How about Oc1ccc2c(c1)c1c3n2[C@@]2(C=C/C(=N\Nc4ccc(C(F)(F)F)cc4)CC2)CC[C@@H]3NCC1 [Compound 1i] ?
Result: 5.18

Request: How about COc1ccc2c(c1)c1c3n2[C@@]2(C=C/C(=N\Nc4ccc(C(F)(F)F)cc4)CC2)CC[C@@H]3NCC1 [Compound 1k] ?
Result: 3.39

====

test system: MRSA-ATCC33591; assay: MIC broth microdilution, MRSA ATCC33591; format: cell-based, Staphylococcus aureus; conditions: Staphylococcus aureus; overnight incubation, Mueller-Hinton broth; read-out: MIC MRSA-ATCC33591
RESULT TYPE: MIC (µg/mL)
Just the number please, in µg/mL, no unit attached.

Request: What is its MIC for MRSA-ATCC33591? Entry: O=[N+]([O-])c1ccc(N/N=C2\C=C[C@@]3(CC2)CC[C@@H]2NCCc4c2n3c2ccccc42)cc1 [Compound 1d]
Result: 3.12

Request: How about COc1ccc2c(c1)c1c3n2[C@@]2(C=C/C(=N\Nc4ccc(C(F)(F)F)cc4)CC2)CC[C@@H]3NCC1 [Compound 1k] ?
Result: 3.12

Request: How about NCC[C@H](O)C(=O)N[C@@H]1C[C@H](N)[C@@H](O[C@H]2O[C@H](CN)[C@@H](O)[C@H](O)[C@H]2O)[C@H](O)[C@H]1O[C@H]1O[C@H](CO)[C@@H](O)[C@H](N)[C@H]1O [Amikacin, reference compound] ?
Result: 50

Request: How about FC(F)(F)Oc1ccc(N/N=C2\C=C[C@@]3(CC2)CC[C@@H]2NCCc4c2n3c2ccccc42)cc1 [Compound 1f] ?
Result: 6.25

Request: How about O=C(O)c1cn(C2CC2)c2cc(N3CCNCC3)c(F)cc2c1=O [Ciprofloxacin, reference compound] ?
Result: 0.3

Request: How about COc1ccc2c3c4n(c2c1)[C@@]1(C=C/C(=N\Nc2ccc(C(F)(F)F)cc2)CC1)CC[C@@H]4NCC3 [Compound 1j] ?
Result: 3.12

Request: How about FC(F)(F)c1ccc(N/N=C2\C=C[C@@]3(CC2)CC[C@@H]2NCCc4c2n3c2ccccc42)cc1 (racemic) [Compound 1e] ?
Result: 3.12

====

test system: MRSA-ATCC33591; test: MIC broth microdilution, MRSA ATCC33591; type: cell-based, Staphylococcus aureus; details: Staphylococcus aureus; overnight incubation, Mueller-Hinton broth; read-out: MIC MRSA-ATCC33591
RESULT TYPE: MIC (µg/mL)
Just the number please, in µg/mL, no unit attached.

Request: MIC for "FC(F)(F)c1ccc(N/N=C2\C=C[C@@]3(CC2)CC[C@@H]2NCCc4c2n3c2ccc(OCc3ccccc3)cc42)cc1" ?
Result: 3.12

Request: How about "COC(=O)[C@@H]1Cc2c3n(c4ccccc24)[C@@]2(C=C/C(=N\Nc4ccc(C(F)(F)F)cc4)CC2)CC[C@@H]3N1" ?
Result: 6.25

Request: How about "COC(=O)[C@H]1Cc2c3n(c4ccccc24)[C@@]2(C=C/C(=N\Nc4ccc(C(F)(F)F)cc4)CC2)CC[C@@H]3N1" ?
Result: 6.25

Request: How about "Cc1ccc2c(c1)c1c3n2[C@@]2(C=C/C(=N\Nc4ccc(C(F)(F)F)cc4)CC2)CC[C@@H]3NCC1" ?
Result: 1.56

Request: How about "Brc1ccc(N/N=C2\C=C[C@@]3(CC2)CC[C@@H]2NCCc4c2n3c2ccccc42)cc1" ?
Result: 6.25

Request: How about "Oc1ccc2c(c1)c1c3n2[C@@]2(C=C/C(=N\Nc4ccc(C(F)(F)F)cc4)CC2)CC[C@@H]3NCC1" ?
Result: 3.12

Request: How about "Fc1ccc2c3c4n(c2c1)[C@@]1(C=C/C(=N\Nc2ccc(C(F)(F)F)cc2)CC1)CC[C@@H]4NCC3" ?
Result: 1.56

====

I'd be grateful if you could share measured MIC for these entries.
tested on: Acinetobacter baumannii ATCC BAA1605 (carbapenem-resistant); assay: MIC broth microdilution, A. baumannii ATCC BAA1605; type: cell-based; details: Acinetobacter baumannii, ATCCBAA1605, MDR; overnight incubation

Request: MIC for "FC(F)(F)Oc1ccc(N/N=C2\C=C[C@@]3(CC2)CC[C@@H]2NCCc4c2n3c2ccccc42)cc1" ?
Result: 25 µg/mL

Request: How about "CO/N=C(\C(=O)N[C@@H]1C(=O)N2C(C(=O)O)=C(COC(C)=O)CS[C@H]12)c1csc(N)n1" ?
Result: ≥ 1000 µg/mL

Request: How about "CO/N=C(\C(=O)N[C@@H]1C(=O)N2C(C(=O)O)=C(CSc3nc(=O)c(=O)[nH]n3C)CS[C@H]12)c1csc(N)n1" ?
Result: ≥ 1000 µg/mL

Request: How about O=C(O)c1cn(C2CC2)c2cc(N3CCNCC3)c(F)cc2c1=O [Ciprofloxacin, reference compound] ?
Result: 50 µg/mL

Request: How about FC(F)(F)c1ccc(N/N=C2\C=C[C@@]3(CC2)CC[C@@H]2NCCc4c2n3c2ccccc42)cc1 (racemic) ?
Result: 12.5 µg/mL

Request: How about "Fc1ccc2c3c4n(c2c1)[C@@]1(C=C/C(=N\Nc2ccc(C(F)(F)F)cc2)CC1)CC[C@@H]4NCC3" ?
Result: 6.25 µg/mL

Request: How about "Oc1ccc2c(c1)c1c3n2[C@@]2(C=C/C(=N\Nc4ccc(C(F)(F)F)cc4)CC2)CC[C@@H]3NCC1" ?
Result: 12.5 µg/mL

Request: How about "C[C@@H](O)[C@H]1C(=O)N2C(C(=O)O)=C(S[C@@H]3CN[C@H](C(=O)N(C)C)C3)[C@H](C)[C@H]12" ?
Result: 12.5 µg/mL

Request: How about "Cc1ccc2c(c1)c1c3n2[C@@]2(C=C/C(=N\Nc4ccc(C(F)(F)F)cc4)CC2)CC[C@@H]3NCC1" ?
Result: 25 µg/mL

Request: How about NCC[C@H](O)C(=O)N[C@@H]1C[C@H](N)[C@@H](O[C@H]2O[C@H](CN)[C@@H](O)[C@H](O)[C@H]2O)[C@H](O)[C@H]1O[C@H]1O[C@H](CO)[C@@H](O)[C@H](N)[C@H]1O [Amikacin, reference compound] ?
Result: 1.25 µg/mL

Request: How about "COc1ccc2c(c1)c1c3n2[C@@]2(C=C/C(=N\Nc4ccc(C(F)(F)F)cc4)CC2)CC[C@@H]3NCC1" ?
Result: 50 µg/mL
